experiment: in vivo; settings: C57BL/6J, mouse, brain, ip, 3 mg/kg

STRUCTURE AS SMILES: C[C@H](NC(=O)Cn1nnc2ccccc2c1=O)c1ccc(OC(F)(F)F)cc1
Tmax at 6 h / min: 30

* * *

experiment: Half life in C57BL/6J mouse plasma at 10 mg/kg, ip measured for 6 hrs by LC-MS/MS analysis
MEASURED ATTRIBUTE: half-life at 6 h (min)

STRUCTURE AS SMILES: C[C@H](NC(=O)Cn1ncc2sccc2c1=O)c1ccccc1
REPORTED RESULT: 52.8

* * *

assay: Metabolic stability in human liver microsomes assessed as compound remaining at 1 uM preincubated for 5 mins followed by NADPH addition and measured after 30 mins by LC-MS analysis
Reported remaining at 0.5 h, 1 µM by item:

STRUCTURE AS SMILES: C[C@H](NC(=O)Cn1ncc2sccc2c1=O)c1ccccc1
remaining at 0.5 h, 1 µM (%): 96.8

STRUCTURE AS SMILES: O=C(c1ccc(F)cc1)C1CCN(CCn2c(=O)[nH]c3ccccc3c2=O)CC1
remaining at 0.5 h, 1 µM (%): 53

STRUCTURE AS SMILES: C[C@H](NC(=O)Cn1nnc2ccccc2c1=O)c1ccc(OC(F)(F)F)cc1
remaining at 0.5 h, 1 µM (%): 94.8

* * *

assay: in vivo; details: C57BL/6J, mouse, brain, ip, 10 mg/kg

STRUCTURE AS SMILES: C[C@H](NC(=O)Cn1nnc2ccccc2c1=O)c1ccc(OC(F)(F)F)cc1
READING UNIT: ng/g
Cmax at 6 h: 6750

STRUCTURE AS SMILES: C[C@H](NC(=O)Cn1ncc2sccc2c1=O)c1ccccc1
READING UNIT: ng/g
Cmax at 6 h: 316

* * *

assay: in vivo; settings: C57BL/6J, mouse, cerebrospinal fluid, ip, 3 mg/kg
MEASURED ATTRIBUTE: AUC(0-t) at 6 h

STRUCTURE AS SMILES: C[C@H](NC(=O)Cn1nnc2ccccc2c1=O)c1ccc(OC(F)(F)F)cc1
MEASURED ATTRIBUTE: AUC(0-t) at 6 h
REPORTED RESULT: 351 ng·h/mL

* * *

assay: Elimination rate constant in C57BL/6J mouse cerebrospinal fluid at 3 mg/kg, ip measured for 6 hrs by LC-MS/MS analysis

STRUCTURE AS SMILES: C[C@H](NC(=O)Cn1nnc2ccccc2c1=O)c1ccc(OC(F)(F)F)cc1
k el at 6 h / s⁻¹: 3.06e-05

* * *

experiment: in vivo; conditions: C57BL/6J, mouse, cerebrospinal fluid, ip, 3 mg/kg

COMPOUND: C[C@H](NC(=O)Cn1nnc2ccccc2c1=O)c1ccc(OC(F)(F)F)cc1 [ZELATRIAZIN]
Tmax at 6 h, h: 2

* * *

assay: Metabolic stability in mouse liver microsomes assessed as compound remaining at 1 uM preincubated for 5 mins followed by NADPH addition and measured after 30 mins by LC-MS analysis
Reported remaining at 0.5 h, 1 µM by item:

MOLECULE: C[C@H](NC(=O)Cn1ncc2sccc2c1=O)c1ccccc1
remaining at 0.5 h, 1 µM, %: 75.1
--
MOLECULE: O=C(c1ccc(F)cc1)C1CCN(CCn2c(=O)[nH]c3ccccc3c2=O)CC1 [KETANSERIN]
remaining at 0.5 h, 1 µM, %: 27.7
--
MOLECULE: C[C@H](NC(=O)Cn1nnc2ccccc2c1=O)c1ccc(OC(F)(F)F)cc1 [ZELATRIAZIN]
remaining at 0.5 h, 1 µM, %: 86.2

Where do these numbers come from? They come from ChEMBL document CHEMBL5370620.
